- TESTED ON: Neu5Ac(a2-3)Gal(b1-4)[Fuc(a1-3)]GlcNAc(b1-3)Gal(b1-4)[Fuc(a1-3)]GlcNAc(b1-3)Gal(b1-4)[Fuc(a1-3)]GlcNAc
- ASSAY COMMENT: glycan array binding signal (z-score within array); higher = stronger binding
- CONDITION CONTEXT: glycan notation: IUPAC condensed, linker removed
The sample as a whole holds a higher share of the strongest signals than the screen did.
QUANTITY KIND: glycan array binding signal (z-score)

BINDER | OBSERVED MEASUREMENT
CLC (Homo sapiens), Q9UBD9 (protein) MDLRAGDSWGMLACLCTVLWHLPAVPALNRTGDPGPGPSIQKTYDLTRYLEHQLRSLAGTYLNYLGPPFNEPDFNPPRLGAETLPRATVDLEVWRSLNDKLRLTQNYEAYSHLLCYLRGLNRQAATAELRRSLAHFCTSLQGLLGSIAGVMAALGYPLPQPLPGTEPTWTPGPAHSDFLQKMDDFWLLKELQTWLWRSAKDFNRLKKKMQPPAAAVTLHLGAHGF | -0.485
CD72 ectodomain (Homo sapiens), P21854 (protein) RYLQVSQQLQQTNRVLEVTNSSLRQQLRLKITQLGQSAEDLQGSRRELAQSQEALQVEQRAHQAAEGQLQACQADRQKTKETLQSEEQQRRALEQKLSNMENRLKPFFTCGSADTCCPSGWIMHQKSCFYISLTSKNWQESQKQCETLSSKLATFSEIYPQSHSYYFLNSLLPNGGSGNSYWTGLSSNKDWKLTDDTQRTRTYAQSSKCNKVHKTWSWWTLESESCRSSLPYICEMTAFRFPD | 1.73
